List of yeast fitness values.
B1: tRNA (parent)
chain: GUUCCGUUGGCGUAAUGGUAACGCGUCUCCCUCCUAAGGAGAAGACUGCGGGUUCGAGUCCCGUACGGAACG

Variants of: B1
assaySummary: yeast fitness relative to wild type (ratio to wild type); higher = fitter; tRNA-Arg(CCU), competitive growth, 37 C, YPD
Variants at the floor of the assay were thinned out.

{"sequenceCode": "GUCCCGUUGGCGUAAUGGUAGCGCGUCUCCCUCGUAAGGAGAAGACUGCGGGUUCGAGUCCCGUACGGCACG [U3C A21G C34G A69C]", "resultComparator": "≤", "yeast fitness": 0.5}
{"sequenceCode": "GUUCCGUUGGCGUAAUGGUAACGCGUCUCCCUCCUCAGGAGAAGACUGCGGGUUUGAGUCCCGUAAGGAACG [A36C C55U C66A]", "resultComparator": "≤", "yeast fitness": 0.5}
{"sequenceCode": "GUUCGGUUGGCGUAAAGGUAACGCGUCUCCCUACUAAGGAGACGACUGCGGGUUCGAGUCCCGUACGGAACG [C5G U16A C33A A43C]", "resultComparator": "≤", "yeast fitness": 0.5}
{"sequenceCode": "GUUCCGUUGGUGUAAUGGUAACGCGUGUCCCUCCUAAGCAGAAGACUGCGGGUUCGAGUCCCGUACGGAACG [C11U C27G G39C]", "resultComparator": "≤", "yeast fitness": 0.5}
{"sequenceCode": "GUUCCGUUGGCGUAUUGGUAACGCGUCUCCCUCCUAUGGAGAAGACUGCGGGUUCGAGUCCCGUACCGAACG [A15U A37U G67C]", "resultComparator": "≤", "yeast fitness": 0.5}
{"sequenceCode": "GUUCCGUUGGCGUAAUGGUAACGCGUCUCCCUCGUAAGGAGUAACCUCCGGGUUCGAGUCCCGAACGGAACG [C34G A42U G44A A45C G48C U64A]", "resultComparator": "≤", "yeast fitness": 0.5}
{"sequenceCode": "GUUCCGUUGGCGUAAUGGUAACGCGUCUCCCUCCUAAGGAGAAGACUGCGGGUUCGAGUCCCAUACGGAACG [G63A]", "resultComparator": "=", "yeast fitness": 0.853}
{"sequenceCode": "GUUCCGUUGGCGUAAUGGUAUCGCAUCUCCCUCCUAAGGAGAAGACUGCGGGUUCGAGUCCCGUACGGAACG [A21U G25A]", "resultComparator": "=", "yeast fitness": 0.757}
{"sequenceCode": "GUUCCGUUGGCGUAAUGGUAACGCGUCUCCCUCCUAAGGAGACGACUGCGGAUUCGAGUCCCGUACGGAUCG [A43C G52A A70U]", "resultComparator": "≤", "yeast fitness": 0.5}
{"sequenceCode": "GUUCCGUUGCCGUAAUGGUAACGCGUCUCCCUCGUAAGGAGAAGACUGCGGGUUCCAGUCCCGUACGGAACG [G10C C34G G56C]", "resultComparator": "=", "yeast fitness": 0.52}
{"sequenceCode": "GUUCCGUUGGCGUAAUGGUAACGCGACUCCCUCCUAAGGAGAAGACUGCGGGUACGAAUCCCGUACGGAACG [U26A U54A G58A]", "resultComparator": "≤", "yeast fitness": 0.5}
{"sequenceCode": "GUUCCGUUGGCGUAAUGGUAGCGCGUCUCCCUCCUAAGGAGAACACUGCGGGUUCGAGUCCCGUACGGAACG [A21G G44C]", "resultComparator": "=", "yeast fitness": 0.963}
{"sequenceCode": "GUUACGUUAGCGUAAUGGUAACGUGUCUCUCUCCUGAGGAGAAGACUGCGGGUUCGAGUCCCGUACAGAACG [C4A G9A C24U C30U A36G G67A]", "resultComparator": "=", "yeast fitness": 0.565}
{"sequenceCode": "GUUCCGUUGGCGUAUUGGUAACGCGUCUCCCUCCUAAGGAGAUGACUGCGGGUUCGAGUCCCGUACGGCACG [A15U A43U A69C]", "resultComparator": "=", "yeast fitness": 0.697}
{"sequenceCode": "GUUCGGUUGGCGUAAUGGUAACGCGUCUCCCUCCUAAGGAGAAGACUGCGGGUUCGAGUCCCGUUCCGAACG [C5G A65U G67C]", "resultComparator": "=", "yeast fitness": 0.569}
{"sequenceCode": "GUUCCGUUGGCGUAAUGGUAACGCGUCUCUCUCCUAAGGAGAAGAUUGCGGGUUCGAGUCCCGUACGGAGCG [C30U C46U A70G]", "resultComparator": "=", "yeast fitness": 0.601}

src = the RNAGym collection of RNA variant scans (doi:10.1126/science.aae0568)
